# System Under Test: Abl (Homo sapiens)
# Sequence (P00519 whole entry): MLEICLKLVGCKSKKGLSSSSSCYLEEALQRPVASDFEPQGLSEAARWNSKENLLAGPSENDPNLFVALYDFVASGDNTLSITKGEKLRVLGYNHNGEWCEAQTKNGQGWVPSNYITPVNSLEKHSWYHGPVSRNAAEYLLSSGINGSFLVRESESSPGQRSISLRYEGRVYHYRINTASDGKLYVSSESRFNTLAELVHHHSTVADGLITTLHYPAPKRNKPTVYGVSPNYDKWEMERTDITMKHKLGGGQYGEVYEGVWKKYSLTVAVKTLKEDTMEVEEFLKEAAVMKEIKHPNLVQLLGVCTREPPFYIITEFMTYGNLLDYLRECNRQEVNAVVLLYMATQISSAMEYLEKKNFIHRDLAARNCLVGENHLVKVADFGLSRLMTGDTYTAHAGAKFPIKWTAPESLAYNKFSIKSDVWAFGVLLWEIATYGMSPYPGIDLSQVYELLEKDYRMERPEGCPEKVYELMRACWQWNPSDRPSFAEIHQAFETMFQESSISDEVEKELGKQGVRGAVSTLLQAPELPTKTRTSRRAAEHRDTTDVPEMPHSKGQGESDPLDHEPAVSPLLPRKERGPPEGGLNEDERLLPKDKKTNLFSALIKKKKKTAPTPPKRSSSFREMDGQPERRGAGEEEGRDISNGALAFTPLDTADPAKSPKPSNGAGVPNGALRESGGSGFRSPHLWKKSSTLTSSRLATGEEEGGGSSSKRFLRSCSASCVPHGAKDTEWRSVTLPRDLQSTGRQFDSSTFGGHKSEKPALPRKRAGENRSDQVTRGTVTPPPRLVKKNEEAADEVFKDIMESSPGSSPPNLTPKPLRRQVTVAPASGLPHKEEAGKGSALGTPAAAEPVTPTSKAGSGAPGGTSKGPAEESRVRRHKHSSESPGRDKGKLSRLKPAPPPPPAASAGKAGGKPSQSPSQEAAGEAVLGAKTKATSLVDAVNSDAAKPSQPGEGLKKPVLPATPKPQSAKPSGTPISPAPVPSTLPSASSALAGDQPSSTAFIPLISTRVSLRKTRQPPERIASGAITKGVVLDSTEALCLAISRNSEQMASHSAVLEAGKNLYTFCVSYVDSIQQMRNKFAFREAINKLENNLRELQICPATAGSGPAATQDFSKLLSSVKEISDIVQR
# Assay Remarks: Abl kinase assay, IMAP fluorescence polarization
# Type: biochemical
Property Measured: pKi
# pKi: negative log10 of molar concentration; output just the value

Input Cc1cccc(Cl)c1N1Cc2cncnc2N(C2CCN(C)CC2)C1=O . Output pKi: 5.21

# pKi (compound: CCN1CCC(N2C(=O)N(c3c(C)cccc3Cl)Cc3cnccc32)CC1 ) is 5.31

For CCN1CCC(N2C(=O)N(c3c(C)cccc3Cl)Cc3cncnc32)CC1 the compound record lists pKi as 5.19

Note to self: pKi recorded for Cc1cccc(F)c1N1Cc2cnc(N)cc2N(C2CCN(C)CC2)C1=O was 6.91

====

Assignment: determine reported Ki for the given compounds.
# System Under Test: SIK2 (Homo sapiens)
# Sequence (Q9H0K1 whole entry): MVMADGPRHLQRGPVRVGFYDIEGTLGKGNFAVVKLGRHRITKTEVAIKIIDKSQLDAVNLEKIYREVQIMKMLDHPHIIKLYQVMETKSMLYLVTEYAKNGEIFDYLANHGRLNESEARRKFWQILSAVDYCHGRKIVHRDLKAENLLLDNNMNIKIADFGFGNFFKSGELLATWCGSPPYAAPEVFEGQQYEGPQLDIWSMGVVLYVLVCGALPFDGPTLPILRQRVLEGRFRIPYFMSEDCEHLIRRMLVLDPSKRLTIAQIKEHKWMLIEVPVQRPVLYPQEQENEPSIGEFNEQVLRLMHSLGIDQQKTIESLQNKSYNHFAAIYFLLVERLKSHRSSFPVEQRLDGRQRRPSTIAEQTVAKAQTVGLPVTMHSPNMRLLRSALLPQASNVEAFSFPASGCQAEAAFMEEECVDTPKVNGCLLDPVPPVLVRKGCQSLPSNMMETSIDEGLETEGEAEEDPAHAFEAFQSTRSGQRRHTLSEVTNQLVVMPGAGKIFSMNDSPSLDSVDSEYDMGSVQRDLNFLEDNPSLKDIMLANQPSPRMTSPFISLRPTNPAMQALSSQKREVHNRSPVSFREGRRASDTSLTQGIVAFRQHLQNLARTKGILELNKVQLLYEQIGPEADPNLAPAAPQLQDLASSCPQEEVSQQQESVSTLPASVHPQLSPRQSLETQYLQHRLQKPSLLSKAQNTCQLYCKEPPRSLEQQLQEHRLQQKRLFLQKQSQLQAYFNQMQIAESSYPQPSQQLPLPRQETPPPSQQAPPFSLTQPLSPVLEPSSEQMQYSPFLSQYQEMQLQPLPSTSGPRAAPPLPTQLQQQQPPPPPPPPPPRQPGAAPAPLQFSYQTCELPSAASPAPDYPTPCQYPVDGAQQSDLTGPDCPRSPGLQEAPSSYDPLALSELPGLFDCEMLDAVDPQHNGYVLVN
# Assay Remarks: SIK2 kinase assay, IMAP fluorescence polarization
# Assay type: biochemical
# Measurement Setup: 50 or 100 μM ATP; average; read-out: SIK2-AVERAGE Ki

Ki recorded for this compound, Cc1cccc(F)c1N1Cc2cnc(N)nc2N(CC2CCNCC2)C1=O [Example 12] , is 149 pM

Given item Cc1cccc(F)c1N1Cc2cnc(N)cc2N([C@H]2CC[C@@H](N)CC2)C1=O [Example 62] , the value recorded as its Ki is 147 pM

Input Cc1cccc(F)c1N1Cc2cnc(N(C)C)cc2N([C@H]2CC[C@@H](N(C)C)CC2)C1=O [Example 41] . Output Ki: 102000 pM

Ki reported for this compound Cc1cccc(F)c1N1Cc2cnc(N)nc2N(C2CCC(N)C2)C1=O (centres unmarked) [Example 76] : 205 pM

Please fill in: Ki reported for CN[C@H]1CC[C@H](N2C(=O)N(c3c(C)cccc3F)Cc3cnc(N)nc32)CC1 [Example 61] = 101 pM

Looking up Cc1cccc(F)c1N1Cc2cnc(N)nc2N([C@@H]2CCCN(C)CC2)C1=O [Example 34] , I found its Ki recorded as 374 pM

In plain terms, Cc1cccc(F)c1N1Cc2cnc(N)cc2N([C@H]2CCN(C)C2)C1=O [Example 79] has a documented Ki of 6500 pM

Reported Ki for Cc1cccc(F)c1N1Cc2cnc(N)nc2N([C@H]2CCCCNC2)C1=O [Example 70] was 278 pM

Measured Ki of CN[C@H]1CC[C@H](N2C(=O)N(c3c(C)cccc3F)Cc3cnc(N)cc32)CC1 [Example 64] : 343 pM

Lab note: measured Ki of Cc1cccc(F)c1N1Cc2cnc(N)nc2N(C2CN(C)C2)C1=O [Example 21] was 13700 pM

Value of measured Ki for the entry Cc1cccc(F)c1N1Cc2cnc(N)nc2N([C@H]2CCCNCC2)C1=O [Example 69] : 99.7 pM

The compound Cc1cccc(F)c1N1Cc2cnc(N)nc2N([C@H]2CC[C@@H](N(C)C)CC2)C1=O [Example 39] showed Ki equal to 444 pM

Record Cc1cccc(F)c1N1Cc2cnc(N)cc2N([C@H]2CCCNCC2)C1=O [Example 54] . Reported Ki: 719 pM

response.value for CN[C@H]1CC[C@@H](N2C(=O)N(c3c(C)cccc3F)Cc3cnc(N)cc32)CC1 [Example 63] (field: Ki) = 676 pM

What the record says about Cc1cccc(F)c1N1Cc2cnc(N)cc2N([C@H]2CCC[C@@H](N)C2)C1=O (relative stereo) [Example 56] : Ki is 190 pM

So, Cc1cccc(F)c1N1Cc2cnc(N)cc2N([C@@H]2CCCN(C)C2)C1=O [Example 81] ? Its Ki was 522 pM

Given item Cc1cccc(F)c1N1Cc2cnc(N)cc2N([C@@H]2CCCN(C)CC2)C1=O [Example 84] , the value recorded as its Ki is 140 pM
